protocolDescription: Phase 1 multiple ascending dose (MAD) plasma pharmacokinetics
Type: in vivo, human
measurementParameters: human, plasma, oral, 840 mg, 840 mg QD, Day 3, age up to 64 years (n = 7); read-out: AUC0-24h (mean)
Procedure: In Part B, healthy young subjects in each cohort received the same dose once daily for 14 days after overnight fasting. Cohort dosing started at 280 mg, followed by 560 mg and 840 mg in subsequent cohorts. In each cohort, eight subjects received drug and two received placebo. […] This was assessed by analysis of variance (ANOVA) of log-transformed Cmax, AUC0-24, AUC0-48, and/or AUC0-inf, using a model with factors for treatment (fed status or age [young vs. elderly] status) and subject within sequence. […]
readout: AUC(0-t) (ng·h/mL)

>>> print(df.to_string())
                                   compound   readout  reportedmeasurement
0  CC(C)(C)Oc1cc(CCC(C)(C)N2Cc3ccc(S(C)(=O)=O)cc3C2)ccc1O [CT1812]  AUC(0-t)                 3610

----------
protocolDescription: Phase 1 multiple ascending dose (MAD) plasma pharmacokinetics
Format: in vivo, human
measurementParameters: human, plasma, oral, 560 mg, 560 mg QD, Day 14, age at least 65 years (n = 7); read-out: AUC0-24h (mean)
readout: AUC(0-t) (ng·h/mL)

                                  structure   readout  unitstring  reportedmeasurement
0  CC(C)(C)Oc1cc(CCC(C)(C)N2Cc3ccc(S(C)(=O)=O)cc3C2)ccc1O  AUC(0-t)     ng·h/mL                 4450

----------
protocolDescription: Phase 1 multiple ascending dose (MAD) plasma pharmacokinetics
Assay type: in vivo, human
measurementParameters: human, plasma, oral, 280 mg, 280 mg QD, Day 3, age up to 64 years (n = 8); read-out: AUC0-24h (mean)
readout: AUC(0-t) (ng·h/mL)

                                  structure  reportedmeasurement
0  CC(C)(C)Oc1cc(CCC(C)(C)N2Cc3ccc(S(C)(=O)=O)cc3C2)ccc1O                  851

----------
protocolDescription: Phase 1 single ascending dose (SAD)/food-effect plasma pharmacokinetics
Type: in vivo, human
measurementParameters: human, plasma, oral, 10 mg, single 10 mg, fasted, Day 1; n = 5; read-out: AUC0-inf (mean)
readout: AUC(0-inf) (ng·h/mL)

>>> df
                                  structure  unitstring  reportedmeasurement
0  CC(C)(C)Oc1cc(CCC(C)(C)N2Cc3ccc(S(C)(=O)=O)cc3C2)ccc1O     ng·h/mL                 30.6

----------
protocolDescription: Phase 1 single ascending dose (SAD)/food-effect plasma pharmacokinetics
Format: in vivo, human
measurementParameters: human, plasma, oral, 30 mg, single 30 mg, fasted (n = 6)
Description: Part A was a single ascending dose cohort study in which healthy, young subjects (less than 65 years old) received one dose of study drug in the morning after an overnight fast. […] This was assessed by analysis of variance (ANOVA) of log-transformed Cmax, AUC0-24, AUC0-48, and/or AUC0-inf, using a model with factors for treatment (fed status or age [young vs. elderly] status) and subject within sequence. […]
readout: Cmax (ng/mL)

                                   compound  reportedmeasurement
0  CC(C)(C)Oc1cc(CCC(C)(C)N2Cc3ccc(S(C)(=O)=O)cc3C2)ccc1O [CT1812]                 19.5
